System: P. aeruginosa (ΔmexAB-oprM)
method-summary: Broth microdilution MIC in CAMHB
Assay type: cell-based
condition-context: Pseudomonas aeruginosa, read-out: Minimum Inhibitory Concentration, P. aeruginosa ΔmexAB-OprM
# MIC per entry

Exercise: Looking for the measured MIC of NCCN1CCN(C(=O)N[C@@H](C(=O)N[C@H]2Cc3cccc(C(=O)O)c3OB2O)c2c(F)cccc2F)C(=O)C1=O (single isomer, unassigned) , can you help?
Key: 32 to 64 µg/mL

Exercise: Looking for the measured MIC of O=C(O)c1cccc2c1OB(O)[C@@H](NC(=O)[C@H](NC(=O)N1CCN(CCF)C(=O)C1=O)c1c(F)cc(O)cc1F)C2 (single isomer, unassigned) , can you help?
Key: 8 to 16 µg/mL

Exercise: Looking for the measured MIC of N=C(N)NCCN1CCN(C(=O)NC(C(=O)N[C@H]2Cc3ccc(F)c(C(=O)O)c3OB2O)c2ccc(C(=O)O)c(F)c2)C(=O)C1=O (stereo partly drawn) , can you help?
Key: 32 to 64 µg/mL

====

assay-target: E. coli K12 PBP3 (Escherichia coli, UniProt P0AD68)
Sequence (P0AD68 1-577): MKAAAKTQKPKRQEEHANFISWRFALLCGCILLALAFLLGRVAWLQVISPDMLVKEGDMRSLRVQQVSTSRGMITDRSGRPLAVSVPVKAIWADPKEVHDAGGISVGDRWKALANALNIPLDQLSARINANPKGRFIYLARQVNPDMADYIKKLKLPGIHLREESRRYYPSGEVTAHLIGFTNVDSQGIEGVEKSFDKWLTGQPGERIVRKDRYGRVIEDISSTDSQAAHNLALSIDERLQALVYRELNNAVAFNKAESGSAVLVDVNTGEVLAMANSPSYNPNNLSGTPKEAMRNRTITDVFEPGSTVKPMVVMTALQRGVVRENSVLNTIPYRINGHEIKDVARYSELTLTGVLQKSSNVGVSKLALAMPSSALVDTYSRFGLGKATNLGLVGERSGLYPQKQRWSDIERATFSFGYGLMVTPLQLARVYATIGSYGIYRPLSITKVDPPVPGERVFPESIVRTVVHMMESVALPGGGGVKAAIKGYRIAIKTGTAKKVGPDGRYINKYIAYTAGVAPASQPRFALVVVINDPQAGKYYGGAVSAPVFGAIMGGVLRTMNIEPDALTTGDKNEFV
method-summary: biochemical
pEC50: −log10 of the molar value.
# pEC50 per entry

The following compounds have reported results that may help.
CCN1CCN(C(=O)NC(C(=O)N[C@H]2Cc3cccc(C(=O)O)c3OB2O)c2cccc(NC(=O)c3cccnc3)c2)C(=O)C1=O (stereo partly drawn)
> 4.52
NCCN1CCN(C(=O)N[C@@H](C(=O)N[C@H]2Cc3cccc(C(=O)O)c3OB2O)c2ccc(O)c(Cl)c2F)C(=O)C1=O (single isomer, unassigned)
> 4.52

Note: attention shifts to another entry.
Exercise: Looking for the measured pEC50 of NS(=O)(=O)Nc1cccc([C@H](NC(=O)N2CCN(CC(F)(F)F)C(=O)C2=O)C(=O)N[C@H]2Cc3cccc(C(=O)O)c3OB2O)c1 (single isomer, unassigned) , can you help?
Key: 3.30 to 4.52

====

Tested on: N. gonorrhoeae FA1090
method-summary: Liquid broth MIC in Fastidious broth
Type: cell-based
condition-context: Neisseria gonorrhoeae; N. gonorrhoeae strain FA1090; Fastidious broth; read-out: Minimum Inhibitory Concentration, N. gonorrhoeae FA1090
# MIC per entry

Exercise: Report MIC for O=C(NC(C(=O)N[C@H]1Cc2ccc(F)c(C(=O)O)c2OB1O)c1ncc(O)cc1F)c1c(F)cc(O)c(O)c1Cl (stereo partly drawn) tested on N. gonorrhoeae FA1090.
Key: 16 to 32 µg/mL

Exercise: Report MIC for O=C(NC(C(=O)N[C@H]1Cc2ccc(F)c(C(=O)O)c2OB1O)c1ncc(O)cc1F)c1ccc(O)c(O)c1Cl (stereo partly drawn) tested on N. gonorrhoeae FA1090.
Key: 4 to 8 µg/mL

Exercise: Report MIC for Nc1nc(C(NC(=O)N2CCN(CCNC(=O)c3ccc(O)c(O)c3Cl)C(=O)C2=O)C(=O)N[C@H]2Cc3ccc(F)c(C(=O)O)c3OB2O)c(F)s1 (stereo partly drawn) tested on N. gonorrhoeae FA1090.
Key: 4 to 8 µg/mL

====

# MIC per entry
Test system: N. gonorrhoeae H041
method-summary: Liquid broth MIC in Fastidious broth
Format: cell-based
condition-context: Neisseria gonorrhoeae, H041, read-out: Minimum Inhibitory Concentration, N. gonorrhoeae H041

CCN1CCN(C(=O)NC(C(=O)N[C@H]2Cc3cccc(C(=O)O)c3OB2O)c2ccc(O)c(NC(=O)c3ccc(O)c(O)c3Cl)c2)C(=O)C1=O (stereo partly drawn) [Example 74]
> 64 µg/mL
NCCN1CCN(C(=O)N[C@H](C(=O)N[C@H]2Cc3cccc(C(=O)O)c3OB2O)c2ccc(O)cc2Cl)C(=O)C1=O (single isomer, unassigned) [Example 85]
> 64 µg/mL

Exercise: Looking for the measured MIC of CCN1CCN(C(=O)NC(C(=O)N[C@H]2Cc3ccc(F)c(C(=O)O)c3OB2O)c2ccc(C(=O)O)cc2)C(=O)C1=O (stereo partly drawn) [Example 15] , can you help?
Key: 4 to 8 µg/mL

Exercise: Looking for the measured MIC of CCN1CCN(C(=O)NC(C(=O)N[C@H]2Cc3cccc(C(=O)O)c3OB2O)c2ccc(O)c(NS(N)(=O)=O)c2)C(=O)C1=O (stereo partly drawn) [Example 30] , can you help?
Key: > 64 µg/mL

Exercise: Looking for the measured MIC of CCN1CCN(C(=O)NC(C(=O)N[C@H]2Cc3cccc(C(=O)O)c3OB2O)c2cccc(CNS(N)(=O)=O)c2)C(=O)C1=O (stereo partly drawn) [Example 107] , can you help?
Key: > 64 µg/mL

Exercise: Looking for the measured MIC of NS(=O)(=O)c1cccc(C(NC(=O)N2CCN(CCF)C(=O)C2=O)C(=O)N[C@H]2Cc3cccc(C(=O)O)c3OB2O)c1 (stereo partly drawn) [Example 100] , can you help?
Key: 16 to 32 µg/mL

====

Test system: N. gonorrhoeae FA1090
method-summary: Liquid broth MIC in Fastidious broth
Type: cell-based
condition-context: Neisseria gonorrhoeae; N. gonorrhoeae strain FA1090; Fastidious broth; read-out: Minimum Inhibitory Concentration, N. gonorrhoeae FA1090
# MIC per entry

The following compounds have reported results that may help.
CC(C)(C)[C@@H](NC(=O)c1c(F)cc(O)c(O)c1Cl)C(=O)N[C@H]1Cc2ccc(F)c(C(=O)O)c2OB1O
> 64 µg/mL
NCCN1CCN(C(=O)NC(C(=O)N[C@H]2Cc3cccc(C(=O)O)c3OB2O)c2c(F)cc(NS(N)(=O)=O)cc2F)C(=O)C1=O (stereo partly drawn)
4 to 8 µg/mL
O=C(O)c1ccc(C(NC(=O)c2c(F)cc(O)c(O)c2Cl)C(=O)N[C@H]2Cc3ccc(F)c(C(=O)O)c3OB2O)cc1F (stereo partly drawn)
> 64 µg/mL
NS(=O)(=O)Nc1ccc(F)c(C(NC(=O)N2CCN(CCF)C(=O)C2=O)C(=O)N[C@H]2Cc3cccc(C(=O)O)c3OB2O)c1 (stereo partly drawn)
0.25 to 0.5 µg/mL
CCN1CCN(C(=O)NC(C(=O)N[C@H]2Cc3ccc(CO)c(C(=O)O)c3OB2O)c2csc(N)n2)C(O)C1=O (stereo partly drawn)
> 64 µg/mL
CCN1CCN(C(=O)NC(C(=O)N[C@H]2Cc3cccc(C(=O)O)c3OB2O)c2ccc(C(N)=O)c(O)c2)C(=O)C1=O (stereo partly drawn)
< 0.125 µg/mL

Exercise: Report MIC for NCCN1CCN(C(=O)N[C@@H](C(=O)N[C@H]2Cc3ccc(F)c(C(=O)O)c3OB2O)c2c(F)cc(O)c(O)c2Cl)C(=O)C1=O (single isomer, unassigned) tested on N. gonorrhoeae FA1090.
Key: 16 to 32 µg/mL

Exercise: Report MIC for NCCN1CCN(C(=O)N[C@@H](C(=O)N[C@H]2Cc3ccc(F)c(C(=O)O)c3OB2O)c2cc(F)c(O)c(O)c2Cl)C(=O)C1=O (single isomer, unassigned) tested on N. gonorrhoeae FA1090.
Key: 16 to 32 µg/mL

Exercise: Report MIC for NCCN1CCN(C(=O)N[C@H](C(=O)N[C@H]2Cc3cccc(C(=O)O)c3OB2O)c2ccc(O)cc2F)C(=O)C1=O (single isomer, unassigned) tested on N. gonorrhoeae FA1090.
Key: 4 to 8 µg/mL

Exercise: Report MIC for "C[C@@H](O)[C@@H](NC(=O)N1CCN(CCNC(=O)c2c(F)cc(O)c(O)c2Cl)C(=O)C1=O)C(=O)N[C@H]1Cc2ccc(F)c(C(=O)O)c2OB1O" tested on N. gonorrhoeae FA1090.
Key: 16 to 32 µg/mL

Exercise: Report MIC for "CC(C)(C)[C@@H](NC(=O)N1CCN(CCNC(=O)c2c(F)cc(O)c(O)c2Cl)C(=O)C1=O)C(=O)N[C@H]1Cc2ccc(F)c(C(=O)O)c2OB1O" tested on N. gonorrhoeae FA1090.
Key: 4 to 8 µg/mL

Exercise: Report MIC for CCN1CCN(C(=O)N[C@@H](C(=O)N[C@H]2Cc3cccc(C(=O)O)c3OB2O)c2ccc(C(=O)O)c(F)c2)C(=O)C1=O (single isomer, unassigned) tested on N. gonorrhoeae FA1090.
Key: < 0.125 µg/mL

====

Tested on: P. aeruginosa ATCC 27853
method-summary: Broth microdilution MIC in CAMHB
Type: cell-based
condition-context: Pseudomonas aeruginosa, ATCC27853; MHB; read-out: Minimum Inhibitory Concentration, P. aeruginosa ATCC 27853
parameter-measured: MIC

The following compounds have reported results that may help.
O=C(O)c1cccc2c1OB(O)[C@@H](NC(=O)C(NC(=O)N1CCNC1=O)c1c(F)cc(O)cc1F)C2 (stereo partly drawn)
> 128 µg/mL
CCN1CCN(C(=O)N[C@@H](C(=O)N[C@H]2Cc3cccc(C(=O)O)c3OB2O)c2cc(O)cc(O)c2)C(=O)C1=O (single isomer, unassigned)
> 128 µg/mL

Note: attention shifts to another entry.
Exercise: Looking for the measured MIC of C[C@H]1CN(CCF)C(=O)C(=O)N1C(=O)NC(C(=O)N[C@H]1Cc2cccc(C(=O)O)c2OB1O)c1cc(F)c(O)c(F)c1F (stereo partly drawn) , can you help?
Key: > 128 µg/mL

Where do these numbers come from? They come from patent US20230114728A1.
